Reported values of pIC50 for individual entries
molecular target: KRAS Q61H (Homo sapiens (Human), UniProt P01116+P62937, Q61H); assay: Ras-Raf (BRAF RBD) disruption / FRET / MOA assay, KRAS Q61H; assay type: biochemical; conditions: Ras-Raf disruption/FRET/MOA assay; class symbols; read-out: KRAS Q61H FRET data IC50
Sequence (P01116-2 other isoform, or with tags, fused parts or gaps Q61H): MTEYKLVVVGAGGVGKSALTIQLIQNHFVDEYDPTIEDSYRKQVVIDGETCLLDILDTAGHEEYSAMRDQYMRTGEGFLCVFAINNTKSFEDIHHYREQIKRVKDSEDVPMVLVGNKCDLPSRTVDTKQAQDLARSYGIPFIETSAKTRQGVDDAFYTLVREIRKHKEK
Sequence (P62937 whole entry): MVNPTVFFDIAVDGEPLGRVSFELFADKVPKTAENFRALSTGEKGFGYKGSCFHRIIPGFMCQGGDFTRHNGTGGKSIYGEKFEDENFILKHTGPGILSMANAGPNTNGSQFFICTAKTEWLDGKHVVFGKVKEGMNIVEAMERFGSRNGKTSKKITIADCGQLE
pIC50: −log10 of the molar value.

{"molecule": "C=CC(=O)N1CCC(F)(C(=O)N(C)[C@H](C(=O)N[C@H]2Cc3nc(cs3)-c3ccc4c(c3)c(c(-c3cccnc3[C@H](C)OC)n4CC)CC(C)(C)COC(=O)[C@@H]3CCCN(N3)C2=O)C(C)C)CC1 (atropisomer, axis not shown)", "tested_target": "KRAS Q61H (Homo sapiens (Human), UniProt P01116+P62937, Q61H)", "pIC50": "6.00 to 7.00"}
{"molecule": "C=CC(=O)N1CC[C@H](C(=O)N(C)[C@H](C(=O)N[C@H]2Cc3cccc(c3)-c3ccc4c(c3)c(c(-c3cc(C5CN(C)C5)cnc3[C@H](C)OC)n4CC)CC(C)(C)COC(=O)[C@@H]3CCCN(N3)C2=O)C(C)C)C1 (atropisomer, axis not shown)", "tested_target": "KRAS Q61H (Homo sapiens (Human), UniProt P01116+P62937, Q61H)", "pIC50": "5.00 to 6.00"}
{"molecule": "C=CC(=O)N1CC[C@@]2(C1)CN(C(=O)N(C)[C@H](C(=O)N[C@H]1Cc3nc(cs3)-c3ccc4c(c3)c(c(-c3cccnc3[C@H](C)OC)n4CC)CC(C)(C)COC(=O)[C@@H]3CCCN(N3)C1=O)C(C)C)CCO2 (atropisomer, axis not shown)", "tested_target": "KRAS Q61H (Homo sapiens (Human), UniProt P01116+P62937, Q61H)", "pIC50": "7.00 to 8.00"}
{"molecule": "C=CC(=O)N1CC[C@H](C(=O)N(C)[C@H](C(=O)N[C@H]2Cc3cccc(c3)-c3ccc4c(c3)c(c(-c3cccnc3[C@H](C)OC)n4CC)CC(C)(C)COC(=O)[C@@H]3CCCN(N3)C2=O)[C@@H](C)C(F)(F)F)C1 (atropisomer, axis not shown)", "tested_target": "KRAS Q61H (Homo sapiens (Human), UniProt P01116+P62937, Q61H)", "pIC50": "6.00 to 7.00"}
{"molecule": "CCn1c(-c2cccnc2[C@H](C)OC)c2c3cc(ccc31)-c1cccc(c1)C[C@H](NC(=O)[C@H](C1CCCC1)N(C)C(=O)[C@@H]1CN(C(=O)C#CC(C)(C)N(C)C)C[C@@H]1C)C(=O)N1CCC[C@H](N1)C(=O)OCC(C)(C)C2 (atropisomer, axis not shown)", "tested_target": "KRAS Q61H (Homo sapiens (Human), UniProt P01116+P62937, Q61H)", "pIC50": "5.00 to 6.00"}
{"molecule": "CCn1c(-c2cccnc2[C@H](C)OC)c2c3cc(ccc31)-c1csc(n1)C[C@H](NC(=O)[C@H](C(C)C)N(C)C(=O)N1CCC3(CC1)CN(C(=O)/C=C/CN(C)C)C3)C(=O)N1CCC[C@H](N1)C(=O)OCC(C)(C)C2 (atropisomer, axis not shown)", "tested_target": "KRAS Q61H (Homo sapiens (Human), UniProt P01116+P62937, Q61H)", "pIC50": "7.00 to 8.00"}
{"molecule": "C=C(C)C(=O)N1CC(N(C)C(=O)N(C)[C@H](C(=O)N[C@H]2Cc3nc(cs3)-c3ccc4c(c3)c(c(-c3cccnc3[C@H](C)OC)n4CC)CC(C)(C)COC(=O)[C@@H]3CCCN(N3)C2=O)C(C)C)C1 (atropisomer, axis not shown)", "tested_target": "KRAS Q61H (Homo sapiens (Human), UniProt P01116+P62937, Q61H)", "pIC50": "6.00 to 7.00"}

###

Molecular target: KRAS Q61H (Homo sapiens (Human), UniProt P01116+P62937, Q61H)
Experiment: Ras-Raf (BRAF RBD) disruption / FRET / MOA assay, KRAS Q61H
Assay type: biochemical
Conditions: Ras-Raf disruption/FRET/MOA assay; class symbols; read-out: KRAS Q61H FRET data IC50
Experimental: The purpose of this biochemical assay is to measure the ability of test compounds to facilitate ternary complex formation between a nucleotide-loaded Ras isoform and cyclophilin A; the resulting ternary complex disrupts binding to a BRAF^RBD construct, inhibiting Ras signaling through a RAF effector. […]. Compound is present in plate wells as a 10-point 3-fold dilution series starting at a final concentration of 30 μM. […]
pIC50: −log10 of the molar value.

{"molecule": "CCn1c(-c2cccnc2[C@H](C)OC)c2c3cc(ccc31)-c1csc(n1)C[C@H](NC(=O)[C@H](C(C)C)N(C)C(=O)N1CCC3(CC1)CN(C(=O)/C=C/CN1CCCCC1)C3)C(=O)N1CCC[C@H](N1)C(=O)OCC(C)(C)C2 (atropisomer, axis not shown)", "pIC50": "6.00 to 7.00"}
{"molecule": "CCn1c(-c2cccnc2[C@H](C)OC)c2c3cc(ccc31)-c1csc(n1)C[C@H](NC(=O)CCOC1CN(C(=O)C#CC(C)(C)N(C)C)C1)C(=O)N1CCC[C@H](N1)C(=O)OCC(C)(C)C2 (atropisomer, axis not shown)", "pIC50": "5.00 to 6.00"}
{"molecule": "C=CC(=O)N1CCO[C@@]2(CCN(C(=O)N(C)[C@H](C(=O)N[C@H]3Cc4nc(cs4)-c4ccc5c(c4)c(c(-c4cccnc4[C@H](C)OC)n5CC(F)(F)F)CC(C)(C)COC(=O)[C@@H]4CCCN(N4)C3=O)C(C)C)C2)C1 (atropisomer, axis not shown)", "pIC50": "7.00 to 8.00"}
{"molecule": "C=CC(=O)N1CC[C@H](C(=O)N(C)[C@H](C(=O)N[C@H]2Cc3cccc(c3)-c3ccc4c(c3)c(c(-c3cccnc3[C@H](C)OC)n4CC(F)F)CC(C)(C)COC(=O)[C@@H]3CCCN(N3)C2=O)C(C)C)C1 (atropisomer, axis not shown)", "pIC50": "5.00 to 6.00"}
{"molecule": "CCn1c(-c2cccnc2[C@H](C)OC)c2c3cc(ccc31)-c1csc(n1)C[C@H](NC(=O)[C@H](C(C)C)N(C)C(=O)N(C)C1CN(C(=O)/C=C/[C@H]3CCCN3C)C1)C(=O)N1CCC[C@H](N1)C(=O)OCC(C)(C)C2 (atropisomer, axis not shown)", "pIC50": "6.00 to 7.00"}
{"molecule": "C=CC(=O)N1CC[C@H](C(=O)N(C)[C@H](C(=O)N[C@H]2Cc3cc(CF)cc(c3)-c3ccc4c(c3)c(c(-c3cccnc3[C@H](C)OC)n4CC)CC(C)(C)COC(=O)[C@@H]3CCCN(N3)C2=O)C(C)C)C1 (atropisomer, axis not shown) [Example A503]", "pIC50": "6.00 to 7.00"}
{"molecule": "CCn1c(-c2cccnc2[C@H](C)OC)c2c3cc(ccc31)-c1csc(n1)C[C@H](NC(=O)C[C@@H]1COC3(CN(C(=O)C#CC(C)(C)N(C)C)C3)O1)C(=O)N1CCC[C@H](N1)C(=O)OCC(C)(C)C2 (atropisomer, axis not shown)", "pIC50": "5.00 to 6.00"}

###

molecular target: NRAS Q61K (Homo sapiens (Human), UniProt P01111+P62937, Q61K); assay: Ras-Raf (BRAF RBD) disruption / FRET / MOA assay, NRAS Q61K; format: biochemical; conditions: NRAS Q61K; Ras-Raf disruption/FRET/MOA assay; read-out: IC50* NRAS Q61K FRET data
Sequence (P01111 whole entry Q61K, one chain of several): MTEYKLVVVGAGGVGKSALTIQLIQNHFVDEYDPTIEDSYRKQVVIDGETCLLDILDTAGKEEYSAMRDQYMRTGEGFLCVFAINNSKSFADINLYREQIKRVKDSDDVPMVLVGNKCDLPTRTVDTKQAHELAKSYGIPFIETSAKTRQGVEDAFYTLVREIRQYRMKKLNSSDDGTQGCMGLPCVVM
pIC50: −log10 of the molar value.

{"compound": "C=CC(=O)N1CC[C@H](C(=O)N(C)[C@H](C(=O)N[C@H]2Cc3cc(O)cc(c3)-c3ccc4c(c3)c(c(-c3cccc(=O)n3C(C)C)n4CC)CC(C)(C)COC(=O)[C@@H]3CCCN(N3)C2=O)C(C)C)C1", "pIC50": "5.00 to 6.00"}
{"compound": "CCn1c(-c2cccnc2[C@H](C)OC)c2c3cc(ccc31)-c1csc(n1)C[C@H](NC(=O)[C@H](F)COC1CN(C(=O)C#CC(C)(C)N(C)C)C1)C(=O)N1CCC[C@H](N1)C(=O)OCC(C)(C)C2 (atropisomer, axis not shown)", "pIC50": "< 5.00"}

###

Molecular target: KRAS Q61H (Homo sapiens (Human), UniProt P01116+P62937, Q61H)
Experiment: Ras-Raf (BRAF RBD) disruption / FRET / MOA assay, KRAS Q61H
Format: biochemical
Details: Ras-Raf disruption/FRET/MOA assay; class symbols; read-out: KRAS Q61H FRET data IC50
Experimental: The purpose of this biochemical assay is to measure the ability of test compounds to facilitate ternary complex formation between a nucleotide-loaded Ras isoform and cyclophilin A; the resulting ternary complex disrupts binding to a BRAF^RBD construct, inhibiting Ras signaling through a RAF effector. […]. Compound is present in plate wells as a 10-point 3-fold dilution series starting at a final concentration of 30 μM. […]
pIC50: −log10 of the molar value.
recorded_endpoint: pIC50

{"molecule": "C=CC(=O)N1CCC2(C1)CN(C(=O)N(C)[C@H](C(=O)N[C@H]1Cc3nc(cs3)-c3ccc4c(c3)c(c(-c3cccnc3[C@H](C)OC)n4CC(F)(F)F)CC(C)(C)COC(=O)[C@@H]3CCCN(N3)C1=O)C(C)C)C2", "tested_target": "KRAS Q61H (Homo sapiens (Human), UniProt P01116+P62937, Q61H)", "result": "7.00 to 8.00"}
{"molecule": "C=CC(=O)N1CC[C@H](C(=O)N(C)[C@H](C(=O)N[C@H]2Cc3cccc(c3)-c3ccc4c(c3)c(c(-c3cnccc3[C@H](C)OC)n4CC)CC(C)(C)COC(=O)[C@@H]3CCCN(N3)C2=O)C(C)C)C1 (single isomer, unassigned)", "tested_target": "KRAS Q61H (Homo sapiens (Human), UniProt P01116+P62937, Q61H)", "result": "6.00 to 7.00"}
{"molecule": "CC#CC(=O)N1CC(N(C)C(=O)N(C)[C@H](C(=O)N[C@H]2Cc3nc(cs3)-c3ccc4c(c3)c(c(-c3cccnc3[C@H](C)OC)n4CC)CC(C)(C)COC(=O)[C@@H]3CCCN(N3)C2=O)C(C)C)C1 (atropisomer, axis not shown)", "tested_target": "KRAS Q61H (Homo sapiens (Human), UniProt P01116+P62937, Q61H)", "result": "6.00 to 7.00"}
{"molecule": "CCn1c(-c2cccnc2[C@H](C)OC)c2c3cc(ccc31)-c1cccc(c1)C[C@H](NC(=O)[C@@H](COC1CN(C(=O)C#C[C@@H]3OCCCN3C)C1)C(C)C)C(=O)N1CCC[C@H](N1)C(=O)OCC(C)(C)C2 (atropisomer, axis not shown)", "tested_target": "KRAS Q61H (Homo sapiens (Human), UniProt P01116+P62937, Q61H)", "result": "< 5.00"}
{"molecule": "CCn1c(-c2cccnc2[C@H](C)OC)c2c3cc(ccc31)-c1cccc(c1)C[C@H](NC(=O)[C@H](C(C)C)N1CC[C@]3(CCN(C(=O)C#C[C@@]4(N(C)C)CCOC4)C3)C1=O)C(=O)N1CCC[C@H](N1)C(=O)OCC(C)(C)C2 (atropisomer, axis not shown)", "tested_target": "KRAS Q61H (Homo sapiens (Human), UniProt P01116+P62937, Q61H)", "result": "6.00 to 7.00"}
{"molecule": "C=CC(=O)N(C)CCN1CCN(C(=O)N(C)[C@H](C(=O)N[C@H]2Cc3cccc(c3)-c3ccc4c(c3)c(c(-c3cccnc3[C@H](C)OC)n4CC)CC(C)(C)COC(=O)[C@@H]3CCCN(N3)C2=O)C(C)C)CC1 (atropisomer, axis not shown)", "tested_target": "KRAS Q61H (Homo sapiens (Human), UniProt P01116+P62937, Q61H)", "result": "6.00 to 7.00"}
{"molecule": "C=CC(=O)N1CC[C@H](C(=O)N(C)[C@H](C(=O)N[C@H]2Cc3cc(O)cc(c3)-c3ccc4c(c3)c(c(-c3cccnc3)n4CC)CC(C)(C)COC(=O)[C@@H]3CCCN(N3)C2=O)C(C)C)C1", "tested_target": "KRAS Q61H (Homo sapiens (Human), UniProt P01116+P62937, Q61H)", "result": "6.00 to 7.00"}
{"molecule": "C=C(C)C(=O)N1CC2(CCN(C(=O)N(C)[C@H](C(=O)N[C@H]3Cc4nc(cs4)-c4ccc5c(c4)c(c(-c4cccnc4[C@H](C)OC)n5CC)CC(C)(C)COC(=O)[C@@H]4CCCN(N4)C3=O)C(C)C)CC2)C1 (atropisomer, axis not shown)", "tested_target": "KRAS Q61H (Homo sapiens (Human), UniProt P01116+P62937, Q61H)", "result": "7.00 to 8.00"}
